Molecular target: Sodium channel protein type 9 subunit alpha (Homo sapiens, UniProt Q15858)
Sequence (Q15858 whole entry): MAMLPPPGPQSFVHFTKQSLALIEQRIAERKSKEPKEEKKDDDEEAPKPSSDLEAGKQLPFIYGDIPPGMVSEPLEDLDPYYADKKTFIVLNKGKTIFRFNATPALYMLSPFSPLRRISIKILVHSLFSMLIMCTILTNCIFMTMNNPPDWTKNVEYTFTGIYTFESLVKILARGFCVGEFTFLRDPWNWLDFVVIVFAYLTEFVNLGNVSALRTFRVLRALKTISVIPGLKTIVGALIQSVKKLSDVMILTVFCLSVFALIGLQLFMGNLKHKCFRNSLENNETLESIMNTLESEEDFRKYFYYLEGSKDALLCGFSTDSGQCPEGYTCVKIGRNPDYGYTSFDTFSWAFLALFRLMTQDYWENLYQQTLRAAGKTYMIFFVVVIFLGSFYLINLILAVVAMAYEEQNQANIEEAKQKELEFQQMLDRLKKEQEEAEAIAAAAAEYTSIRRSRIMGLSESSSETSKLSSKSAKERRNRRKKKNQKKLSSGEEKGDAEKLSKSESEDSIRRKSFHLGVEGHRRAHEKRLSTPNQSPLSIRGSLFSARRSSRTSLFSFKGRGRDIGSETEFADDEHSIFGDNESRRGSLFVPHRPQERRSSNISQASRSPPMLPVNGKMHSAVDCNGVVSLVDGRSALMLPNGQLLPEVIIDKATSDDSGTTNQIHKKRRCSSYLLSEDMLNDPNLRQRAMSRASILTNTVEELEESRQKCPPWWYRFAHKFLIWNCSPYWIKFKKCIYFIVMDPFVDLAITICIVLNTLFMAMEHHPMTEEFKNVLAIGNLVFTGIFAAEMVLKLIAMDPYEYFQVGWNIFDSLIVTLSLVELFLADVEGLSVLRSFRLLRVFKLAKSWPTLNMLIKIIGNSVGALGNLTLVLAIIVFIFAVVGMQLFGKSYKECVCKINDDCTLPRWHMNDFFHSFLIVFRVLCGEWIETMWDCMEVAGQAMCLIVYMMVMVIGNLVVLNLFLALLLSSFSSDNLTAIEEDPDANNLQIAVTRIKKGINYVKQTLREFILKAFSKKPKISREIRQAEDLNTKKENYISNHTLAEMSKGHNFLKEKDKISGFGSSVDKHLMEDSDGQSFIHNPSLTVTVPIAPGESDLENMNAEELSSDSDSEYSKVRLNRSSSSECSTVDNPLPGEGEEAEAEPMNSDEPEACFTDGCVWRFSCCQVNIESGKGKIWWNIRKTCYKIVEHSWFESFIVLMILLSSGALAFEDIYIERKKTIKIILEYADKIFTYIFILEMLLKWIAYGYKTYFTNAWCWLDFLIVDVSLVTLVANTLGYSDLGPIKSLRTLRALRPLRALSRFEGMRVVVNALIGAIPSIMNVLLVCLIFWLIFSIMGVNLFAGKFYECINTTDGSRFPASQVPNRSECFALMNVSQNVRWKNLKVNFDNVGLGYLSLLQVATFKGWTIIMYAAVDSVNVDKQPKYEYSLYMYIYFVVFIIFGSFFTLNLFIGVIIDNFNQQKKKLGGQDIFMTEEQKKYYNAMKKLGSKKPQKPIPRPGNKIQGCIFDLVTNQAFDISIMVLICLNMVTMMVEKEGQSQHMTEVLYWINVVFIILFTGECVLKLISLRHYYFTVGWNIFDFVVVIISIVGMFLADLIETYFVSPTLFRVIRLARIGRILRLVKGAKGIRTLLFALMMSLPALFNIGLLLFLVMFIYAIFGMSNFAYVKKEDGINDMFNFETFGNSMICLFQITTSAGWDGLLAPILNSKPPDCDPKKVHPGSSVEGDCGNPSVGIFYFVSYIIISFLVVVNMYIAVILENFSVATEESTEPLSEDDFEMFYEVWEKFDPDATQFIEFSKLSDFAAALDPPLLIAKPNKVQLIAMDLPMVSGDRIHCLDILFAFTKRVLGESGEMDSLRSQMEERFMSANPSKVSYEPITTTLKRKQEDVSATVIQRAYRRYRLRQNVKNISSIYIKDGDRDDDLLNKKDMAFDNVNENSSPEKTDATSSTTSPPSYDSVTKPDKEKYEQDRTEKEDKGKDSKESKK
Test: Antagonist activity at recombinant human Nav1.7 expressed in HEK293 cells assessed as reduction in peak inward current at -65 mV holding potential by patch clamp electrophysiology
Type: cell-based
measurementName: IC50 (nM)
Unit nM implied. Number only.

Query: Which IC50 reading was recorded for the compound CC1(C)CN[C@H](c2cc(Cl)cc(Cl)c2)[C@@H](Oc2cc(F)c(S(=O)(=O)Nc3ncns3)cc2F)O1 ?
Result: 11

* * *

Molecular target: Sodium channel protein type 9 subunit alpha (Homo sapiens, UniProt Q15858)
Assay: Antagonist activity at recombinant human Nav1.7 expressed in HEK293 cells assessed as reduction in channel current at -60 mV holding potential after 600 secs by barracuda automated electrophysiology method
Type: cell-based
measurementName: IC50 (µM)
Unit µM implied. Number only.

>  <compound>
CC(C)[C@H]1COC(Oc2cc(F)c(S(=O)(=O)Nc3ncns3)cc2F)C(c2cc(Cl)cc(Cl)c2)N1 (single isomer, unassigned; isomer B)

>  <measurementName>
IC50

>  <endpointResult>
1.1

$$$$
>  <compound>
CC(C)[C@H]1COC(Oc2cc(F)c(S(=O)(=O)Nc3ncns3)cc2F)C(c2cc(Cl)cc(Cl)c2)N1 (single isomer, unassigned; isomer A)

>  <measurementName>
IC50

>  <endpointResult>
0.43

$$$$
>  <compound>
O=S(=O)(Nc1ncns1)c1cc(F)c(OC[C@H]2OCCN[C@@H]2c2ccc(Cl)cc2)cc1F

>  <measurementName>
IC50

>  <endpointResult>
29

$$$$

Please examine the following record next.
Query: Which IC50 reading was recorded for the compound COc1ccc(C2NCCOC2Oc2cc(F)c(S(=O)(=O)Nc3ncns3)cc2F)cc1 (single isomer, unassigned; isomer B) ?
Result: 1.8

* * *

Molecular target: Sodium channel protein type 9 subunit alpha (Homo sapiens, UniProt Q15858)
Assay: Antagonist activity at recombinant human Nav1.7 expressed in HEK293 cells assessed as reduction in channel current at -60 mV holding potential after 600 secs by barracuda automated electrophysiology method
Format: cell-based
Just a reminder that ties go to Criterion not met: only IC50 strictly below 200 nM counts as Criterion met.

Use these answered entries as a reference point.
>  <molecule>
CC1(C)COC(Oc2cc(F)c(S(=O)(=O)Nc3ncns3)cc2F)C(c2ccc(Cl)cc2)N1 (single isomer, unassigned; isomer A)

>  <testedSystem>
Sodium channel protein type 9 subunit alpha (Homo sapiens, UniProt Q15858)

>  <classLabel>
Criterion not met

$$$$
>  <molecule>
O=S(=O)(Nc1ncns1)c1cc(F)c(OC2OCCNC2c2ccc3cnccc3c2)cc1F (single isomer, unassigned; isomer A)

>  <testedSystem>
Sodium channel protein type 9 subunit alpha (Homo sapiens, UniProt Q15858)

>  <classLabel>
Criterion not met

$$$$
>  <molecule>
O=S(=O)(Nc1ncns1)c1cc(F)c(OC2OCCNC2c2cc(Cl)cc(Cl)c2)cc1F (single isomer, unassigned; isomer B)

>  <testedSystem>
Sodium channel protein type 9 subunit alpha (Homo sapiens, UniProt Q15858)

>  <classLabel>
Criterion met

$$$$
>  <molecule>
CC(C)[C@@H]1COC(Oc2cc(F)c(S(=O)(=O)Nc3ncns3)cc2F)C(c2cc(Cl)cc(Cl)c2)N1 (stereo in doubt; 66)

>  <testedSystem>
Sodium channel protein type 9 subunit alpha (Homo sapiens, UniProt Q15858)

>  <classLabel>
Criterion not met

$$$$

Now take the following molecule into account.
Query: Please determine if O=S(=O)(Nc1ncns1)c1cc(F)c(OC2OCCNC2c2cccc3nccnc23)cc1F (single isomer, unassigned; isomer A) is below 200 nM in terms of IC50.
Result: Criterion not met
